Test system: T-47D breast
Experiment: NCI-60 one-dose screen, 48 h (100 = growth as untreated, 0 = no growth, -100 = all killed)
Conditions: 10 µM unless noted
Description: Growth inhibition of the T-47D human tumor cell line is measured as a screen for anti-cancer activity. Cells are grown in 96 well plates and exposed to the test compound for 48 hours. Compounds are tested at a single concentration, which is 10^-5 M for most compounds. The reported endpoint is percent growth (GI% or GIPRCNT), where numbers from 0 - 100% represent growth inhibition, and numbers from -100% - 0 represent cell death. For example, a value of 40 represents 60% growth inhibition. […]
About 83,000 compounds went through this panel and 20% of them were active in at least one assay; those are over-represented in the sample as a whole.
Property Measured: growth (%)
One number for each entry, in %.

Compound: COc1ccc(NC(=O)CSc2nnc(-c3cc(-c4ccccc4)nc4ccccc34)n2-c2ccccc2)cc1
Study Target: T-47D breast
Readout Units: %
growth: 78.4
//
Compound: CC1=C(SCCC(=O)OC(C[Se]C2=C(C)C(=O)c3ccccc3C2=O)C(=O)NCCCCCC(=O)OCc2ccccc2)C(=O)c2ccccc2C1=O (stereo unspecified)
Study Target: T-47D breast
Readout Units: %
growth: 49.9
//
Compound: COc1cc(-c2n/c(=C\c3c(O)[nH]c4ccc(Cl)cc34)cc3c2=Nc2ccccc2-3)cc(OC)c1OC
Study Target: T-47D breast
Readout Units: %
growth: 32.7

Please state growth for every compound in the list that follows.
1. Cc1ccc(NCCN(C)C)c2c(=O)c3ccccc3sc12
2. N#Cc1c(N)nc2c(C#N)c(NC(=O)c3ccccc3)nn2c1-c1ccccc1
3. COc1ccc(-c2nc3c(N)c(CO)c(C)nc3o2)cc1

1. 22.3
2. 68.2
3. 90.9

Look at each compound and report its growth.
1. Nc1n[nH]c2cc(F)c([C@@H]3Nc4c(F)cc5[nH]ncc5c4[C@H]4C5CCC(C5)[C@@H]34)cc12 (stereo partly specified)
2. COc1ccc(S(=O)(=O)NCCNc2nccc(-c3c(-c4cccc(F)c4)nc4sccn34)n2)cc1
3. COc1ccc(-c2nc(SC(C)C)nc(NNC(N)=S)c2C#N)cc1
4. CC(=O)O[C@]1(C(C)=O)CCC2C3C[C@H](C)C4=CC(=O)CC[C@]4(C)C3CC[C@@]21C (stereo partly specified)
5. Cc1c(O)cc(-c2cnc(N/N=C\c3ccc(Cl)cc3)s2)c(O)c1C
6. COc1cc(N2C(=O)c3nccnc3C2=O)cc(OC)c1OC
7. CC(C)=C[C@@H]1c2c(c3ccccc3n(C)c2=O)O[C@H]2c3c(c4ccccc4n(C)c3=O)OC(C)(C)[C@@H]12
8. COc1cc(/C=C/C(=O)c2ccc(Nc3nc(Nc4ccc(F)cc4)nc(Nc4ccc(Cl)cc4)n3)cc2)cc(OC)c1OC

1: 83.8; 2: 25; 3: 51.6; 4: 95.3; 5: -11.2; 6: 96.9; 7: 57.7; 8: 61.9

Give measured growth for every item shown.
1. CC(C)(C)OC(=O)Nc1ccc2c(c1)C(NC(=O)Nc1cccc(C#N)c1)CC(C)(C)O2 (stereo unspecified)
2. Cc1ccc(NS(=O)(=O)c2ccc3c(c2)C2OCCC2C(c2ccc(C(=O)C(C)C)cc2)N3)cc1C (stereo unspecified)
3. N#Cc1c(-c2ccccn2)[nH]c(=S)[nH]c1=O
4. CCOc1ccccc1-c1cc(-c2cccs2)c(C#N)c(=O)[nH]1

1: 34.2; 2: 24.3; 3: 94.4; 4: 26.7

Parameter requested: growth. Apply to each item below.
1. CC(=O)[C@@H]1CC[C@]2(COS(=O)(=O)c3ccc(C)cc3)CC[C@]3(C)[C@H](CC[C@@H]4[C@@]5(C)CCCNC(C)(C)[C@@H]5CC[C@]43C)[C@@H]12
2. CN(C)CC1=NC2SC=C(c3ccccc3)C2C(=O)N1CC#N (stereo unspecified)
3. O=C(NCCc1ccc(O)c(O)c1)C12CC3CC(CC(C3)C1)C2
4. CCCCC1CCCCN1C(=O)OCC (stereo unspecified)
5. COC(=O)/C=C1\S/C(=N\NS(=O)(=O)c2ccc(C)cc2)N(c2ccccc2)C1=O
6. Cc1cc(NCc2cc(Nc3ccnc4cc(Cl)ccc34)ccc2F)nc(N2CCN(c3ccccc3)CC2)n1
7. Cc1ccc(N(C(=O)CCc2c[nH]c3ccccc23)[C@H](C(=O)Nc2ccc(Cl)cc2)c2cccc([N+](=O)[O-])c2)cc1
8. COc1ccc(/C=C/c2c(C(=O)/C=C/c3cccs3)c(C)nc3ccccc23)cc1

1: 49.7; 2: 86.8; 3: 93.1; 4: 89.2; 5: 99.2; 6: 24.5; 7: 72.5; 8: 47.8

Recorded values, source PubChem BioAssay (NCI).
